Data provenance is ChEMBL document CHEMBL5625221.

Consider molecules characterized by their Ki with Carbonic anhydrase 9 (Homo sapiens).
Numeric answer only, unit nM assumed.

Some solved cases for reference:
{"molecule": "CN1C(=O)/C(=N\\NC(=O)C2CCCN(CC(=O)Nc3ccc(S(N)(=O)=O)cc3)C2)c2ccccc21 (centres undefined)", "Ki, nM": 33.5}
{"molecule": "CC(C(=O)Nc1ccc(S(N)(=O)=O)cc1)N1CCCC(C(=O)N/N=C2\\C(=O)N(Cc3ccc(Cl)cc3)c3ccccc32)C1 (centres undefined)", "Ki, nM": 19.2}
{"molecule": "NS(=O)(=O)c1ccc(NC(=O)CN2CCCC(C(=O)N/N=C3\\C(=O)N(Cc4ccccc4)c4ccccc43)C2)cc1 (centres undefined)", "Ki, nM": 21.4}

Q) // Ki lookup, key: NS(=O)(=O)c1ccc(NC(=O)CN2CCCC(C(=O)N/N=C3\C(=O)Nc4cc(Cl)ccc43)C2)cc1 (centres undefined)
A) 22.1

* * *

Listing: IC50 of selected compounds
Test system: MDA-MB-231
Test: cells
Details: Homo sapiens, MDA-MB-231, 48 h
Description: Antiproliferative activity against human MDA-MB-231 cells assessed as inhibition of cell growth incubated for 48 hrs by MTT reagent based ELISA
Numeric answer only, unit µM assumed.

Some solved cases for reference:
{"compound": "CC(C(=O)Nc1ccc(S(N)(=O)=O)cc1)N1CCCC(C(=O)N/N=C2\\C(=O)Nc3ccccc32)C1 (centres undefined)", "IC50 / µM": 4.08}
{"compound": "COc1ccc2c(c1)NC(=O)C2=NNC(=O)C1CCCN(C(C)C(=O)Nc2ccc(S(N)(=O)=O)cc2)C1 (centres undefined)", "IC50 / µM": 7.2}
{"compound": "O=c1[nH]cc(F)c(=O)[nH]1", "IC50 / µM": 8.7}

Now let's try a different one.
Q) // IC50 lookup, key: `NS(=O)(=O)c1ccc(NC(=O)CN2CCC(C(=O)N/N=C3\C(=O)Nc4ccc(F)cc43)CC2)cc1`
A) 18.9

* * *

Consider compounds characterized by their pKi with Carbonic anhydrase 9 (Homo sapiens, UniProt Q16790).
Scale note: pKi = -log10(concentration in M).

{"compound": "NS(=O)(=O)c1ccc(NC(=O)CN2CCCC(C(=O)N/N=C3\\C(=O)Nc4cc(Br)ccc43)C2)cc1 (stereo unspecified)", "pKi": 7.18}

Q) # returns recorded pKi (system: Carbonic anhydrase 9 (Homo sapiens, UniProt Q16790)) for `NS(=O)(=O)c1ccc(NC(=O)CN2CCC(C(=O)N/N=C3\C(=O)N(Cc4ccccc4)c4ccccc43)CC2)cc1`
A) 7.89

Q) # returns recorded pKi (system: Carbonic anhydrase 9 (Homo sapiens, UniProt Q16790)) for `NS(=O)(=O)c1ccc(NC(=O)CN2CCC(C(=O)NN=C3C(=O)Nc4ccc(Br)cc43)CC2)cc1`
A) 7.55

Q) # returns recorded pKi (system: Carbonic anhydrase 9 (Homo sapiens, UniProt Q16790)) for `NS(=O)(=O)c1ccc(CC/N=C2\C(=O)Nc3ccc(Cl)cc32)cc1`
A) 7.54

Q) # returns recorded pKi (system: Carbonic anhydrase 9 (Homo sapiens, UniProt Q16790)) for CC(C(=O)Nc1ccc(S(N)(=O)=O)cc1)N1CCCC(C(=O)N/N=C2\C(=O)Nc3cc(Br)ccc32)C1 (stereo unspecified)
A) 8.01

Q) # returns recorded pKi (system: Carbonic anhydrase 9 (Homo sapiens, UniProt Q16790)) for NS(=O)(=O)c1ccc(NC(=O)CN2CCCC(C(=O)N/N=C3\C(=O)Nc4ccccc43)C2)cc1 (stereo unspecified)
A) 7.28
